- tested.on: pseudo-kinase domain (JH2, amino-acids 536-812) of human Wild Type JAK2 (Homo sapiens (Human), UniProt O60674, F794H/W659A/W777A)
- Sequence (O60674 536-812 W659A/W777A/F794H): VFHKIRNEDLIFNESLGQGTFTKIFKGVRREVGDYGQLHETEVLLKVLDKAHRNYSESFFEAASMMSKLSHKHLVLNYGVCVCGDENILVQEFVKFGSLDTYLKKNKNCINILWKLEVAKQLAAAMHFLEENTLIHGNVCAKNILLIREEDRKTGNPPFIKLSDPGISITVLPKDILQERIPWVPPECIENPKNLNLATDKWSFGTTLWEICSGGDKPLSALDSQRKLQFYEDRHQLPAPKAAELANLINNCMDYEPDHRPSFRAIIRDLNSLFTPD
- assay.text: JAK2 LanthaScreen JH2-WT Binding Assay
- details: JAK2 JH2-WT 0.145 nM, 50 nM tracer, 1 hour at 25° C.; read-out: JH2 BIND WT IC50
pIC50: −log10 of the molar value.
Some compounds, each annotated with its measured pIC50.

compound: Cc1c(-c2ccc3c(c2)OCCO3)c(=O)[nH]c2cnc3[nH]c(-c4ccc(CN5CCC(S(C)(=O)=O)CC5)cc4)cc3c12
pIC50: 5.00 to 6.00
--
compound: CC(=O)N1CC[C@H](c2cc3c4c(-c5ccccc5)c(-c5ccc(CN6CCC(S(C)(=O)=O)CC6)cc5)[nH]c4ncc3n(C)c2=O)C1
pIC50: ≥ 7.00
--
compound: Cc1ccncc1-c1cc2c3c(-c4ccc(C(=O)N(C)C)cc4)c(-c4cnn(C)c4)[nH]c3ncc2n(C)c1=O
pIC50: ≥ 7.00
--
compound: Cc1c(-c2ccc(-n3cnnn3)cc2)c(=O)[nH]c2cnc3[nH]c(-c4ccc(CN5CCC(S(C)(=O)=O)CC5)cc4)cc3c12
pIC50: 6.30 to 7.00
--
compound: CN(C)C(=O)c1ccc(-c2c(-c3cnn(C)c3)[nH]c3ncc4c(cc(N5CCC(S(C)(=O)=O)CC5)c(=O)n4C)c23)cc1
pIC50: ≥ 7.00
--
compound: Cc1c(-c2ccc(C(=O)O)cc2)c(=O)[nH]c2cnc3[nH]c(-c4ccc(CN5CCC(S(C)(=O)=O)CC5)cc4)cc3c12
pIC50: ≥ 7.00
--
compound: Cc1cc(-c2c(-c3ccc(NC4CCOCC4)cc3)c3c4cc(-c5cnn(C)c5)[nH]c4ncc3n(C)c2=O)on1
pIC50: ≥ 7.00
--
compound: CN(C)C(=O)c1ccc(-c2c(-c3cnn(C)c3)[nH]c3ncc4c(cc(N5CCC6(CCOC6)CC5)c(=O)n4C)c23)cc1
pIC50: 6.30 to 7.00
--
compound: COCCN(C)c1ccc(-c2c(-c3cc(C)no3)c(=O)n(C)c3cnc4[nH]c(-c5cnn(C)c5)cc4c23)cc1
pIC50: ≥ 7.00
--
compound: CS(=O)(=O)C1CCN(Cc2ccc(-c3cc4c(ncc5[nH]c(=O)c(C#N)cc54)[nH]3)cc2)CC1
pIC50: 5.00 to 6.00
--
compound: COc1ccc(-c2c(C)c3c4cc(-c5ccc(CN6CCC(S(C)(=O)=O)CC6)cc5)[nH]c4ncc3n(C)c2=O)cc1
pIC50: ≥ 7.00
--
compound: CCc1c(-c2ccc(C(=O)O)cc2)c(=O)n(C)c2cnc3[nH]c(-c4ccc(CN5CCC(S(C)(=O)=O)CC5)cc4)cc3c12
pIC50: ≥ 7.00
--
compound: CS(=O)(=O)C1CCN(Cc2ccc(-c3cc4c(ncc5[nH]c(=O)c(-c6ccccc6)cc54)[nH]3)cc2)CC1
pIC50: 5.00 to 6.00
--
compound: Cc1cc(-c2c(-c3ccc(C(=O)Nc4ccc5oc(C)nc5c4)cc3)c3c4cc(-c5cnn(C)c5)[nH]c4ncc3n(C)c2=O)on1
pIC50: ≥ 7.00
--
compound: CS(=O)(=O)C1CCN(Cc2ccc(-c3cc4c(ncc5[nH]c(=O)c(-c6nnn[nH]6)cc54)[nH]3)cc2)CC1
pIC50: 6.00 to 6.30
--
compound: CS(=O)(=O)C1CCN(Cc2ccc(-c3cc4c(ncc5[nH]c(=O)c(-c6ccc(C(=O)O)cc6)cc54)[nH]3)cc2)CC1
pIC50: ≥ 7.00
--
compound: Cc1ccc(-c2c(C)c3c4cc(-c5ccc(CN6CCC(S(C)(=O)=O)CC6)cc5)[nH]c4ncc3n(C)c2=O)cc1
pIC50: ≥ 7.00
--
compound: COC1CCC(c2c(-c3cc(C)no3)c(=O)n(C)c3cnc4[nH]c(-c5cnn(C)c5)cc4c23)CC1 (centres unmarked)
pIC50: ≥ 7.00
--
compound: CN(C)C(=O)c1ccc(-c2c(-c3cnn(C)c3)[nH]c3ncc4c(cc(NC5CCC(CC#N)CC5)c(=O)n4C)c23)cc1 (centres unmarked)
pIC50: ≥ 7.00
--
compound: COc1c(-c2ccccc2)c(=O)n(C)c2cnc3[nH]c(-c4ccc(CN5CCC(S(C)(=O)=O)CC5)cc4)cc3c12
pIC50: ≥ 7.00
--
compound: Cn1c(=O)c(-c2ccc(C(=O)O)cc2)cc2c3cc(-c4ccc(CN5CCC(S(C)(=O)=O)CC5)cc4)[nH]c3ncc21
pIC50: ≥ 7.00
--
compound: CN(C)C(=O)c1cc2c3c(-c4ccc5c(cnn5C)c4)c(-c4cnn(C)c4)[nH]c3ncc2n(C)c1=O
pIC50: ≥ 7.00
--
compound: Cc1c(-c2ccc(C(=O)O)cc2)c(=O)n(C)c2cnc3[nH]c(-c4ccc(CN5CCC(S(C)(=O)=O)CC5)cc4)cc3c12
pIC50: ≥ 7.00
--
compound: COCc1ccc(-c2c(-c3cc(C)no3)c(=O)n(C)c3cnc4[nH]c(-c5cnn(C)c5)cc4c23)cc1
pIC50: ≥ 7.00
--
compound: Cc1c(-c2ccc(C#N)cc2)c(=O)n(C)c2cnc3[nH]c(-c4ccc(CN5CCC(S(C)(=O)=O)CC5)cc4)cc3c12
pIC50: ≥ 7.00
--
compound: CN(C)C(=O)c1ccc(-c2c(-c3cnn(C)c3)[nH]c3ncc4c(cc(Nc5ccc(Cc6nnn[nH]6)cc5)c(=O)n4C)c23)cc1
pIC50: ≥ 7.00

---

- tested.on: pseudo-kinase domain (JH2, amino-acids 536-812) of human Wild Type JAK2 (Homo sapiens (Human), UniProt O60674, F794H/W659A/W777A)
- assay.text: JAK2 LanthaScreen JH2-WT Binding Assay
- details: JAK2 JH2-WT 0.145 nM, 50 nM tracer, 1 hour at 25° C.; read-out: JH2 BIND WT IC50
pIC50: −log10 of the molar value.
Some molecules, each annotated with its measured pIC50.
reported.property: pIC50

molecule: COc1ccc(-c2c(-c3cnn(C)c3)[nH]c3ncc4c(cc(C(=O)N(C)C)c(=O)n4C)c23)cc1
result.value: ≥ 7.00
//
molecule: Cc1cc(=O)[nH]c2cnc3[nH]c(-c4ccc(CN5CCC(S(C)(=O)=O)CC5)cc4)cc3c12
result.value: 5.00 to 6.00
//
molecule: Cc1cc(-c2c(-c3ccc(-c4cnn(C)c4CO)cc3)c3c4cc(-c5cnn(C)c5)[nH]c4ncc3n(C)c2=O)on1
result.value: ≥ 7.00
//
molecule: CCn1c(=O)c(-c2ccc(C(=O)O)cc2)cc2c3cc(-c4ccc(CN5CCC(S(C)(=O)=O)CC5)cc4)[nH]c3ncc21
result.value: 6.00 to 6.30
//
molecule: Cc1cc(-c2c(-c3ccc(CNC4CCCOC4)cc3)c3c4cc(-c5cnn(C)c5)[nH]c4ncc3n(C)c2=O)on1 (centres unmarked)
result.value: ≥ 7.00
//
molecule: Cc1cc(-c2c(-c3ccc(C(=O)NCCO)cc3)c3c4cc(-c5cnn(C)c5)[nH]c4ncc3n(C)c2=O)on1
result.value: ≥ 7.00
//
molecule: CN(C)C(=O)c1ccc(-c2c(-c3cnn(C)c3)[nH]c3ncc4c(cc(Nc5cccc(-c6nnn[nH]6)c5)c(=O)n4C)c23)cc1
result.value: ≥ 7.00
//
molecule: CN(C)C(=O)c1cc2c3c(-c4ccc(C5(C#N)CC5)cc4)c(-c4cnn(C)c4)[nH]c3ncc2n(C)c1=O
result.value: ≥ 7.00
//
molecule: COC1CCC(c2cc(=O)n(C)c3cnc4[nH]c(-c5cnn(C)c5)cc4c23)CC1 (centres unmarked)
result.value: ≥ 7.00
//
molecule: Cc1c(-c2ccc(Cl)cc2)c(=O)n(C)c2cnc3[nH]c(-c4ccc(CN5CCC(S(C)(=O)=O)CC5)cc4)cc3c12
result.value: ≥ 7.00
//
molecule: Cc1cc(-c2c(-c3ccc(-c4cnn(C)c4C)cc3)c3c4cc(-c5cnn(C)c5)[nH]c4ncc3n(C)c2=O)on1
result.value: ≥ 7.00

---

- tested.on: catalytic domain (JH1, amino acids 826-1132) of human JAK2 (Homo sapiens (Human))
- Sequence (O60674 826-1132): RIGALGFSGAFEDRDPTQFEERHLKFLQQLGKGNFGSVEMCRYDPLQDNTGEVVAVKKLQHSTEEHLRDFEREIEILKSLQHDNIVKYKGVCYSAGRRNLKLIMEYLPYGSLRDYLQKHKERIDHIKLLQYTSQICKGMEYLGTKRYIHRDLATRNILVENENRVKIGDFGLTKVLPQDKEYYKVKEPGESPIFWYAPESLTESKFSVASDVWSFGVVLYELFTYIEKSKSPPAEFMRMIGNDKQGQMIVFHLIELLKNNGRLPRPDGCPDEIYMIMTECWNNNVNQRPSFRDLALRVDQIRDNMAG
- assay.text: JAK2 LanthaScreen JH1 Binding Assay
- details: JAK2 JH1 1.5 nM, 50 nM tracer, 2 hours at 25° C.; read-out: JH1 BIND IC50
pIC50: −log10 of the molar value.

compound: CN(C)C(=O)c1ccc(-c2c(-c3cnn(C)c3)[nH]c3ncc4c(cc(N5CCC(S(C)(=O)=O)CC5)c(=O)n4C)c23)cc1 [Example 39]
pIC50: 6.30 to 7.00

compound: Cc1cc(-c2c(-c3ccc(C(=O)Nc4ccc5oc(C)nc5c4)cc3)c3c4cc(-c5cnn(C)c5)[nH]c4ncc3n(C)c2=O)on1 [Example 26]
pIC50: 6.30 to 7.00

compound: Cc1c(-c2ccc([N+](=O)[O-])cc2)c(=O)[nH]c2cnc3[nH]c(-c4ccc(CN5CCC(S(C)(=O)=O)CC5)cc4)cc3c12 [Example 18]
pIC50: 5.00 to 6.00

compound: COCCS(=O)(=O)C1CCN(c2cc3c4c(-c5ccc(C(=O)N(C)C)cc5)c(-c5cnn(C)c5)[nH]c4ncc3n(C)c2=O)CC1 [Example 40]
pIC50: 5.00 to 6.00

compound: CC(=O)N1CC[C@H](c2cc3c4c(-c5ccccc5)c(-c5ccc(CN6CCC(S(C)(=O)=O)CC6)cc5)[nH]c4ncc3n(C)c2=O)C1 [Example 37]
pIC50: ≥ 7.00

compound: Cc1c(-c2ccc(C(=O)O)cc2)c(=O)[nH]c2cnc3[nH]c(-c4ccc(CN5CCC(S(C)(=O)=O)CC5)cc4)cc3c12 [Example 6]
pIC50: < 5.00

compound: CCn1c(=O)c(-c2ccc(C(=O)O)cc2)cc2c3cc(-c4ccc(CN5CCC(S(C)(=O)=O)CC5)cc4)[nH]c3ncc21 [Example 15]
pIC50: 5.00 to 6.00

compound: Cn1c(=O)c(-c2ccc(C(=O)O)cc2)cc2c3cc(-c4ccc(CN5CCC(S(C)(=O)=O)CC5)cc4)[nH]c3ncc21 [Example 14]
pIC50: 6.30 to 7.00

compound: Cc1cc(=O)[nH]c2cnc3[nH]c(-c4ccc(CN5CCC(S(C)(=O)=O)CC5)cc4)cc3c12 [Example 17]
pIC50: 5.00 to 6.00

compound: CCc1c(-c2ccc(C(=O)O)cc2)c(=O)n(C)c2cnc3[nH]c(-c4ccc(CN5CCC(S(C)(=O)=O)CC5)cc4)cc3c12 [Example 16]
pIC50: 6.30 to 7.00

compound: Cn1nccc1-c1cc2c(cnc3[nH]c(-c4ccc(CN5CCC(S(C)(=O)=O)CC5)cc4)cc32)[nH]c1=O [Example 4]
pIC50: 5.00 to 6.00

compound: CS(=O)(=O)C1CCN(Cc2ccc(-c3cc4c(ncc5[nH]c(=O)c(-c6ccccc6)cc54)[nH]3)cc2)CC1 [Example 1]
pIC50: 5.00 to 6.00

compound: CN(C)C(=O)c1cc2c3c(-c4ccc(C5(C#N)CC5)cc4)c(-c4cnn(C)c4)[nH]c3ncc2n(C)c1=O [Example 44]
pIC50: 5.00 to 6.00

Entry source: patent US11767323B2
